Entries and their measured IC50 follow.
system: Recombinant human HDAC8 (Homo sapiens, UniProt Q9BY41)
Construct: purchased Enzo Life Sciences BML-SE145-0100
Sequence (Q9BY41 whole entry): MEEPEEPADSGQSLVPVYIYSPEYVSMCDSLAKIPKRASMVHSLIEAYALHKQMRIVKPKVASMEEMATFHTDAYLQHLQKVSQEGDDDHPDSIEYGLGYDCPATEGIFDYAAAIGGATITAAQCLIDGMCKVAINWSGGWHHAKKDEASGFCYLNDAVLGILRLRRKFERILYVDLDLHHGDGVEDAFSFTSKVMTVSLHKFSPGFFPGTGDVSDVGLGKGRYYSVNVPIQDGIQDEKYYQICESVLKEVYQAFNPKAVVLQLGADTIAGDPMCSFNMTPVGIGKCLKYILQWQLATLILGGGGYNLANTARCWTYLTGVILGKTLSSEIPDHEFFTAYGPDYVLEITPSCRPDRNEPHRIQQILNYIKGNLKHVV
protocol-text: Human HDAC enzyme inhibitor Fluor-de-Lys assay, HDAC8
Format: biochemical
Quick reminder: number only, in µM, skip the unit.

Previously resolved entries follow.
compound=CCC(=O)CCCCC[C@H](NC(=O)[C@H]1CC12CCN(CC)CC2)c1ncc(-c2ccc(-c3ncco3)cc2)o1 observation_type=IC50 measured_result=44.2
compound="C=CCN1CCC2(CC1)C[C@@H]2C(=O)N[C@@H](CCCCCC(=O)CC)c1ncc(-c2ccc3c(c2)C2CCC3N2CC=C)[nH]1 (stereo partly drawn)" observation_type=IC50 measured_result=8.66

Now look at this one.
Problem: Give the reported value of IC50 for this record: CCC(=O)CCCCC[C@H](NC(=O)C1CC12CCC(N(C)C)CC2)c1ncc(-c2cc3ccccc3nc2OC)[nH]1 (single isomer, unassigned) [Compound 128]
Solution: 5.58

###

system: Recombinant human HDAC2 (Homo sapiens, UniProt Q92769)
Construct: Full length human HDAC2-FLAG was expressed in baculovirus infected Sf9 cells; FLAG (C); made in house; host or cells: Sf9 (baculovirus)
Sequence (Q92769 whole entry): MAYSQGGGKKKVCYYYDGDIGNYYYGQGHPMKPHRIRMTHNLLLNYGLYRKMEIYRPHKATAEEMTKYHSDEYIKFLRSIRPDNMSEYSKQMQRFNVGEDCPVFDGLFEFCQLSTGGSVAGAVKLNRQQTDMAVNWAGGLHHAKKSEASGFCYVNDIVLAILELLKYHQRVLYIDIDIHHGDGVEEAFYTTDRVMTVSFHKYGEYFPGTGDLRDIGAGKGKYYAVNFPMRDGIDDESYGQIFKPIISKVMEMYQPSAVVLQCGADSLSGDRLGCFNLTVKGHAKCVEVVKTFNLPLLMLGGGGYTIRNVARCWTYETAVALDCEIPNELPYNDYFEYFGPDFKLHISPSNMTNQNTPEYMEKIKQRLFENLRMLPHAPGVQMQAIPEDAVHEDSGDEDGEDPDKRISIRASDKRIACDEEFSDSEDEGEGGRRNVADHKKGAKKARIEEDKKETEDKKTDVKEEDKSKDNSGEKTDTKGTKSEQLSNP
protocol-text: Human HDAC enzyme inhibitor Fluor-de-Lys assay, HDAC2
Format: biochemical
test-parameters: recombinant human HDAC2, Fluor-de-Lys assay
observation-type: pIC50
Please treat pIC50 as minus the base-10 logarithm of the molar concentration.

Previously resolved entries follow.
molecule=CCC(=O)CCCCC[C@H](NC(=O)C1=NOC2(CCN(C)CC2)C1)c1ncc(-c2ccc(Cl)cc2OC)o1 measured_result=6.80
molecule=CCC(=O)CCCCC[C@H](NC(=O)[C@H]1CC12CCN(C)CC2)c1ncc(-c2ccc(-n3nc(C)cc3C)cc2)[nH]1 measured_result=7.28
molecule=CCC(=O)CCCCC[C@H](NC(=O)[C@H]1CC12CCN(CC1CC1)CC2)c1ncc(-c2cc3ccc(C)nc3cc2OC)o1 measured_result=9.15
molecule=CCC(=O)CCCCC[C@H](NC(=O)[C@H]1CC12CCN(C)CC2)c1ncc(-c2ccc(F)cc2F)[nH]1 measured_result=6.59
molecule="CCC(=O)CCCCC[C@H](NC(=O)C1CC12CCN(CC)CC2)c1nc(-c2ccc(F)cc2)[nH]c1-c1cccc(OC)c1 (stereo partly shown)" measured_result=6.11

Problem: Give the reported value of pIC50 for this record: CCC(=O)CCCCC[C@H](NC(=O)C1=NOC2(CCN(CC3CC3)CC2)C1)c1ncc(-c2cc3ccc(=O)n(C)c3cc2F)o1
Solution: 6.68

Problem: Give the reported value of pIC50 for this record: CCC(=O)CCCCC[C@H](NC(=O)[C@H]1CC12CCN(CC)CC2)c1ncc(-c2ccc3nn(C4CC4)cc3c2)[nH]1
Solution: 8.72

Problem: Give the reported value of pIC50 for this record: CCC(=O)CCCCC[C@H](NC(=O)C1CC12CCN(CC)CC2)c1nc(-c2ccc(F)cc2)[nH]c1-c1cnc(OC)nc1 (stereo partly shown)
Solution: 6.67

Problem: Give the reported value of pIC50 for this record: CCC(=O)CCCCC[C@H](NC(=O)CC1CC2(C1)CN(C(C)C)C2)c1ncc(-c2cc3ccccc3nc2OC)[nH]1
Solution: 8.47

Problem: Give the reported value of pIC50 for this record: CCC(=O)CCCCC[C@H](NC(=O)C1CCC2(CC1)CNC2)c1nnc(-c2cc3ccccc3nc2OC)o1
Solution: 7.45

Problem: Give the reported value of pIC50 for this record: CCCC(=O)CCCCC[C@H](NC(=O)[C@H]1CC12CCN(CC1CC1)CC2)c1ncc(-c2cc3ccc(C)nc3cc2OC)[nH]1
Solution: 8.35

Problem: Give the reported value of pIC50 for this record: CCC(=O)CCCCC[C@H](NC(=O)CC1CC2(CNC2)C1)c1ncc(-c2ccccc2)[nH]1
Solution: 6.92

Problem: Give the reported value of pIC50 for this record: CCC(=O)CCCCC[C@H](NC(=O)C1CC12CC1CCC(C2)N1C)c1ncc(-c2ccc3ncccc3c2)[nH]1 (single isomer, unassigned)
Solution: 7.79
